- Tested on: rice
- measurementNotes: Outdoor comparison of rice stimulating action of M3432 with lower homologues and isomers (Example 11)
- Type: in vivo
- protocolConditions: 4 kg./ha., 21 days after sowing
observedProperty: Secondary roots (No.)
The response must be a number in No. with no trailing unit.

CC(C)CN(CC(C)C)C(=O)SCc1ccccc1 [S-benzyl-N,N-diisobutylthiocarbamate] : 1.68
CCCCN(CCCC)C(=O)SCc1ccccc1 [S-benzyl-N,N-din.butyl-thiocarbamate, S-benzyl-N,N-din.butylthiocarbamate] : 1.78
CC(C)N(C(=O)SCc1ccccc1)C(C)C [S-benzyl-N,N-diisopropylthiocarbamate, S-benzyl-N,N-diisopropyl thiocarbamate] : 2.52

The record that follows has no Secondary roots shown yet.
Ask | Complete the entry with Secondary roots for CCC(C)N(C(=O)SCc1ccccc1)C(C)CC (stereo not shown) [M3432, S-benzyl-N,N-disec.butylthiocarbamate]
Reply | 2.52

Reference source: patent US3930838A
